src = BindingDB's records for doi:10.1016/j.bmc.2016.05.005

Assay: Antagonist activity at DOR in CD1 mouse vas deferens assessed as pEC50 for DPDPE-induced inhibition of EFS-evoked contractions at 1 uM incubated for 60 mins
measured_metric: EC50 (µM)
Supply the numeric figure in µM, leaving out any unit text.

{"molecule_smiles": "C[C@H]1[C@H]2Cc3ccc(O)cc3[C@]1(C)CCN2CCC(=O)Nc1ccccc1", "endpoint_value": 126}

Continue with the compound presented below.
Sample `C[C@H]1[C@H]2Cc3ccc(O)cc3[C@]1(C)CCN2CCC(=O)Nc1cccc2ccccc12` — what was its EC50?
7.94
